Recorded MRT inf values for a group of molecules are listed next.
Test: PK study of the 12 alkaloids in rat plasma after oral administration of ZJ and FZJ extract (LC–MS/MS)
Assay type: in vivo
Conditions: rat, in vivo, po, 3.76 g/kg
Description: The time schedule included 15 time-points and six rats were sampled at each time-point. […] PK parameters of the 12 alkaloids including AUC0→t, AUC0→∞, mean retention time (MRT0→t, MRT0→∞), and elimination half-life (t1/2) were calculated with non-compartmental method by DAS 2.0 software (Mathematical Pharmacology Professional Committee of China, Shanghai, China). […] The results were expressed as arithmetic mean ± standard deviation (SD).
Kindly provide the numeric value in h only, without the unit symbol.

molecule	reported_endpoint	readout_unit	assay_value
c1c2c(cc3c1OCO3)-c1cc3ccc4c(c3c[n+]1CC2)OCO4	MRT inf	h	5.2
C[n+]1c2n(c(=O)c3ccccc31)CCc1c-2[nH]c2ccccc12 [dehydroevodiamine]	MRT inf	h	5.96

Would you kindly look at the next entry?
Please report MRT inf for the following molecule: COc1cc2c(cc1OC)-c1cc3ccc(OC)c(OC)c3c[n+]1CC2
4.49

====

Test: Two-compartment model fitting of C–T curves (DAS 2.0)
Assay type: in vivo, rat
Settings: oral ZJ extract
Recorded r^2 (correlation coefficient method), two-compartment model fitting values for a group of compounds are listed next.
Please give only the number in your answer, with no unit.

Worked cases, r^2 (correlation coefficient method), two-compartment model fitting given:
compound	assay_value
COc1cc2c(cc1OC)C(=O)NCC2	0.243
Cn1c(=O)n(CCC2(O)C(=O)Nc3ccccc32)c(=O)c2ccccc21 (stereo not shown) [wuchuyuamide-I]	0.544
O=C1NCCc2cc3c(cc21)OCO3 [noroxyhydrastinine]	0.313

Would you kindly look at the next entry?
Please report r^2 (correlation coefficient method), two-compartment model fitting for the following compound: CCCCC=CCCCCCCCc1cc(=O)c2ccccc2n1C
0.734

====

Experiment: PK study of the 12 alkaloids in rat plasma after oral administration of ZJ and FZJ extract (LC–MS/MS)
Format: in vivo
Settings: 3.76 g/kg; rat plasma, oral FZJ extract, mean ± SD, n = 6; read-out: t1/2
true (1) means recorded half-life is 4 h or above; false (0) means it is below 4 h.

Reference set (2 entries):
compound	class
Cn1c(=O)n(CCC2(O)C(=O)Nc3ccccc32)c(=O)c2ccccc21 (stereo not drawn) [wuchuyuamide-I]	true (1)
COc1ccc2cc3[n+](cc2c1OC)CCc1cc2c(cc1-3)OCO2 [berberine]	false (0)

For this compound, is measured half-life 4 h or higher? CCCCC=CCCCCCCCc1cc(=O)c2ccccc2n1C [evocarpine]
true (1)

====

Experiment: PK study of the 12 alkaloids in rat plasma after oral administration of ZJ and FZJ extract (LC–MS/MS)
Format: in vivo
Details: rat, in vivo, po, 3.38 g/kg
reported_endpoint: Cmax
Show the value, then the unit it is measured in.

compound	assay_value
c1c2c(cc3c1OCO3)-c1cc3ccc4c(c3c[n+]1CC2)OCO4 [coptisine]	14.1 ng/mL
C[n+]1c2n(c(=O)c3ccccc31)CCc1c-2[nH]c2ccccc12 [dehydroevodiamine]	155 ng/mL

Please report Cmax for the following compound: COc1cc2c(cc1OC)-c1cc3ccc(OC)c(OC)c3c[n+]1CC2 [palmatine]
34.1 ng/mL

====

Assay: Stability of analytes in rat plasma under storage conditions
Assay type: physicochemical
Details: room temperature 24 h, medium QC concentration, n = 6
Recorded Stability RE, processed samples' stability values for a group of compounds are listed next.
Kindly provide the numeric value in % only, without the unit symbol.

Worked cases, Stability RE, processed samples' stability given:
compound	readout_unit	assay_value
Cn1c(=O)n(CCC2(O)C(=O)Nc3ccccc32)c(=O)c2ccccc21 (centres unmarked) [wuchuyuamide-I]	%	−14.07
COc1ccc2cc3[n+](cc2c1OC)CCc1cc2c(cc1-3)OCO2 [berberine]	%	4.57

Please report Stability RE, processed samples' stability for the following compound: COc1cc2c(cc1OC)-c1cc3ccc4c(c3c(=O)n1CC2)OCO4 [8-oxoepiberberine]
9.35

Please report Stability RE, processed samples' stability for the following compound: COc1cc2c(cc1OC)-c1cc3ccc(OC)c(OC)c3c[n+]1CC2 [palmatine]
−2.85

Please report Stability RE, processed samples' stability for the following compound: C[n+]1c2n(c(=O)c3ccccc31)CCc1c-2[nH]c2ccccc12 [dehydroevodiamine]
4.78
